Molecular target: activated ROCK II (Rattus norvegicus, UniProt Q62868)
Construct: purchased Upstate Biotechnology 14-338
Sequence (Q62868 11-550 limits assumed): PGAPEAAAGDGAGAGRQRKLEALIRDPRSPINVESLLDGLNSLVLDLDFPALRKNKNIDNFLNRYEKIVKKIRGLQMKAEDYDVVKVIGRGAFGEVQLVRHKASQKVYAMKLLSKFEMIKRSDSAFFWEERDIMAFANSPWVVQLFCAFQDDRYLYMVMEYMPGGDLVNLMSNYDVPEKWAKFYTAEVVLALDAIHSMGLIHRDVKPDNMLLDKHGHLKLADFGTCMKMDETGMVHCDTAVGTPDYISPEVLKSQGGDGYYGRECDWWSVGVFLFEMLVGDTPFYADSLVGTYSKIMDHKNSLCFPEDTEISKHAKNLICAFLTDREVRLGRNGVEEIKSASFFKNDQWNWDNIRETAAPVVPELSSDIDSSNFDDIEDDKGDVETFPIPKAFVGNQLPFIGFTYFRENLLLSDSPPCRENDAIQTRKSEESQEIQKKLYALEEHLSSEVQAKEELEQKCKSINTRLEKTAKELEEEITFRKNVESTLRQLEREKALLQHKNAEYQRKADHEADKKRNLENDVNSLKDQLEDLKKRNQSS
Test: Test for Evaluation of Inhibiting Activity to Rho Kinase
Format: biochemical
Details: S6 Kinase Substrate Peptide, [γ-32P]ATP, 30° C. for 15 minutes, Ki=IC50/(1+S/Km)
Structures can show the parent of a compound that is named as a salt.
We begin with a simple list: items and their reported Ki.
Express the result in nM but write the number alone.

>  <compound>
CC(C)(N)c1ccc(-c2ccc3[nH]ncc3c2N2CCCCC2)cc1 [Compound 5-41, trihydrochloride]

>  <value type>
Ki

>  <assay result>
14

$$$$

Lab entry: activated ROCK II (Rattus norvegicus, UniProt Q62868) assay, compound CC(C)(N)c1ccc(-c2ccc3[nH]ncc3c2-c2cnco2)cc1 [Compound 5-66, dihydrochloride] , Ki = 2.6

Item NCc1ccc(-c2ccc3[nH]ncc3c2[N+](=O)[O-])cc1 [Compound 5-19, dihydrochloride] was tested on activated ROCK II (Rattus norvegicus, UniProt Q62868); the reported Ki is 55

Readout Ki for CC(C)(N)c1ccc(-c2ccc3[nH]ncc3c2N)cc1 [Compound 5-5, trihydrochloride] , test system activated ROCK II (Rattus norvegicus, UniProt Q62868), was 44

###

Where a name gives a salt, the structure may show the parent alone.
value type: melting point

>  <compound>
C=CCOc1c(-c2ccc(C(C)(C)N)cc2)ccc2[nH]ncc12 (as salt: hydrochloride) [Compound 5-57, dihydrochloride]

>  <melting point>
205 to 207 °C (dec.)

$$$$
>  <compound>
CCOc1c(-c2ccc(C(C)(C)N)cn2)ccc2[nH]ncc12 (as salt: hydrochloride) [Compound 5-47, trihydrochloride]

>  <melting point>
198 to 201 °C

$$$$
>  <compound>
COc1c(-c2ccc(C(C)(C)N)cn2)ccc2[nH]ncc12 (as salt: hydrochloride) [Compound 5-45, trihydrochloride]

>  <melting point>
195 to 201 °C (dec.)

$$$$
>  <compound>
CC(C)(N)c1ccc(-c2ccc3[nH]ncc3c2N2CCCCC2)cc1 (as salt: hydrochloride) [Compound 5-41, trihydrochloride]

>  <melting point>
205 to 208 °C (dec.)

$$$$
>  <compound>
CCC(N)(CC)c1ccc(-c2ccc3[nH]ncc3c2OC2CC2)nc1 (as salt: hydrochloride) [Compound 5-71, trihydrochloride]

>  <melting point>
207 to 209 °C (dec.)

$$$$

Notebook: CC(C)(N)c1ccc(-c2ccc3[nH]ncc3c2-c2ccncc2)cc1 (as salt: hydrochloride) [Compound 5-61, trihydrochloride] , melting point read as 266 to 269 °C (dec.)

Notebook: CC(C)(N)c1ccc(-c2ccc3[nH]ncc3c2-c2cnco2)cc1 (as salt: hydrochloride) [Compound 5-66, dihydrochloride] , melting point read as 212 to 214 °C (dec.)

# melting point of CC(C)(N)c1ccc(-c2ccc3[nH]ncc3c2)nc1 (as salt: hydrochloride) [Compound 5-3, trihydrochloride] = 271 to 273 °C (dec.)

Record summary for CC(=O)Nc1c(-c2ccc(C(C)(C)N)cc2)ccc2[nH]ncc12 (as salt: hydrochloride) [Compound 5-18, dihydrochloride] : reported melting point = 218 to 221 °C

Record CN(C)/C=C/C(=O)c1c(-c2ccc(C(C)(C)NC(=O)OC(C)(C)C)cc2)ccc2nn(C3CCCCO3)cc12 (stereo not shown) [Compound 29] . Reported melting point: 191 to 194 °C

For record CC(C)(N)c1ccc(-c2ccc3[nH]ncc3c2OC(F)F)cc1 (as salt: hydrochloride) [Compound 5-53, dihydrochloride] the listed melting point is 227 to 230 °C (dec.)

According to the records, this compound CC(C)(N)c1ccc(-c2ccc3[nH]ncc3c2O)cc1 (as salt: hydrochloride) [Compound 5-48, dihydrochloride] displays melting point of 194 to 198 °C (dec.)

Field melting point (entry CC(C)(N)c1ccc(-c2ccc3[nH]ncc3c2N)cc1 (as salt: hydrochloride) [Compound 5-5, trihydrochloride] ) reads 228 to 235 °C (dec.)

Reference source: patent US8232308B2
